- Test system: EB-3 (Burkitt's Lymphoma)
- assay_overview: combination Emax (second highest fraction inhibited in the dose matrix, 72 h); higher = more inhibition; extreme values may be limits of the assay
endpoint_label: combination Emax
Give the value as a plain number.

Answered examples (3):
COc1nnc2ccc(N3CCC(c4ccc(OCCN5CCN(C)C(=O)[C@H]5C)cc4)CC3)nn12 [AZD5153] + C[C@@H]1COCCN1C2=NC(=NC(=C2)C3(CC3)[S@](=N)(=O)C)C4=C5C=CNC5=NC=C4 [AZD6738] (first compound max 1 µM, 7x7, partner max 10 µM) : 0.833
O=C(c1cc(Cc2n[nH]c(=O)c3ccccc23)ccc1F)N1CCN(C(=O)C2CC2)CC1 [Olaparib] + CN(CC[C@H](CSC1=CC=CC=C1)NC2=C(C=C(C=C2)S(=O)(=O)NC(=O)C3=CC=C(C=C3)N4CCC(CC4)[C@H](C5=CC=CC=C5C6=CC=C(C=C6)Cl)O)S(=O)(=O)C(F)(F)F)CCO [AZD4320] (first compound max 10 µM, 7x7, partner max 1 µM) : 0.158
CC1(C)CCC(CN2CCN(c3ccc(C(=O)NS(=O)(=O)c4ccc(NCC5CCOCC5)c([N+](=O)[O-])c4)c(Oc4cnc5[nH]ccc5c4)c3)CC2)=C(c2ccc(Cl)cc2)C1 [Venetoclax] + C=CCn1c(=O)c2cnc(Nc3ccc(N4CCN(C)CC4)cc3)nc2n1-c1cccc(C(C)(C)O)n1 [AZD1775] (first compound max 1 µM, partner max 1 µM) : 0.674

[ask] Any idea what combination Emax was measured for Cc1c2c(nn1C)CSCc1cc(n(C)n1)CSc1cc(c3ccccc3c1)OCCCc1c(C(=O)O)n(C)c3c-2c(Cl)ccc13 [AZD5991] + Cn1cnc2c(F)c(Nc3ccc(Br)cc3Cl)c(C(=O)NOCCO)cc21 [Selumetinib] (first compound max 1 µM, 7x7, partner max 3 µM) ?
[reply] 0.138

[ask] Any idea what combination Emax was measured for CS(=O)(=O)CCNCc1ccc(-c2ccc3ncnc(Nc4ccc(OCc5cccc(F)c5)c(Cl)c4)c3c2)o1 [Lapatinib] + NC1(c2ccc(-c3nc4ccn5c(=O)[nH]nc5c4cc3-c3ccccc3)cc2)CCC1 [MK-2206] (first compound max 10 µM, 7x7, partner max 10 µM) ?
[reply] 0.937
